The measured values listed here are drawn from PubChem BioAssay (NCI).

System: SK-OV-3 ovarian
Assay: NCI tumour cell line growth inhibition, 48 h
In this section we review reported TGI values for a set of molecules.

Some molecules with recorded TGI:
- COc1ccc(-c2nn(-c3cccc(Cl)c3)cc2-c2cc(-c3ccccc3)[nH]c(=O)c2C#N)cc1: 2.29 µM
- C[C@@H]1S[C@H](c2ccccc2F)N2Cc3ccccc3N=C12: 85.1 µM
- COc1cc2c(cc1O)CCN[C@]21CS[C@@H]2c3c(OC(C)=O)c(C)c4c(c3[C@H](COC1=O)N1[C@@H]2[C@H]2c3c(cc(C)c(OC)c3O)C[C@@H]([C@@H]1O)N2C)OCO4: 3.99 µM
- Cc1cc2c([N+](=O)[O-])cc3c(c2o1)C(=O)C=CC3=O: > 80.1 µM
- Nc1nc(-c2ccc(Cl)c([N+](=O)[O-])c2)cs1: > 100 µM
- COc1cc(/C=C2\[C@H]3c4c(c(OC)c(C)c(OC)c4OC)CC(C(=O)N2Cc2ccccc2)N3C)c(OC)c(C)c1OC: 92 µM

Lab note: record TGI of COc1nc2ncc([C@@H](OC(C)=O)[C@@H](COC(C)=O)OC(C)=O)nc2c(=O)[nH]1 tested on SK-OV-3 ovarian.
> 100 µM

Lab note: record TGI of Nc1ccccc1C(=O)/C=C/c1c(O)ccc2ccccc12 tested on SK-OV-3 ovarian.
> 100 µM

Lab note: record TGI of Cc1c(N2C(=O)C(Cl)C2c2ccc(Cl)cc2)c(=O)n(-c2ccccc2)n1C (stereo unspecified) tested on SK-OV-3 ovarian.
> 100 µM

Lab note: record TGI of Cc1cn([C@@H]2C[C@H](CO)[C@@H](O)C2)c(=O)[nH]c1=O tested on SK-OV-3 ovarian.
> 100 µM

Lab note: record TGI of COc1cccc(/C=N/[N-]C(=O)c2ccncc2)c1[O-].COc1cccc(/C=N/[N-]C(=O)c2ccncc2)c1[O-].[O]=[U](=[O])([OH2+])[OH2+] tested on SK-OV-3 ovarian.
73.2 µM
